TEST_DESCRIPTION: chemical genetic growth profiling, strain panel (AID 1159580);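 further: tested at 20 µM; growth read once vehicle control cultures reached saturation at 30 °C; 1 = growth at the plate median or of vehicle wells; lower values mean less growth of the strain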
CONDITION_DESCRIPTION: S. cerevisiae deletion strains, growth OD, strain wtn01, stronger effect = lower value
In all, about 5,500 compounds went through this assay and about 2,000 (36%) were called active. Inconclusive results (about 18%) are left out. This is one part of the list.
Each entry below lists one item and its recorded normalized growth value.
Give the figure by itself; no unit, no explanation.

Q: Specify measured normalized growth for COc1c2occc2cc2ccc(=O)oc12 .
A: 0.966

Q: Specify measured normalized growth for O=c1cc(-c2ccc(O)cc2)oc2cc(O[C@@H]3O[C@H](CO)[C@@H](O)[C@H](O)[C@H]3O[C@@H]3OC[C@](O)(CO)[C@H]3O)cc(O)c12 .
A: 0.99
